- System: anti-OVA-specific IgG2a subclass antibody
- Test summary: Adjuvant activity test: anti-OVA-specific IgG2a subclass antibody in serum of OVA-immunized mice (ELISA)
- Type: in vivo, BALB/c mice
- Applied conditions: after primary immunization, serum 2 weeks later; OVA 5 μg + compound 0.256 μmol in 5% αCD-added saline (Addavax mixed with saline at 1:1), dorsal-subcutaneous; compared to OVA single administration group
Structures can show the parent of a compound that is named as a salt.
Quantity name: anti-OVA-specific IgG2a subclass antibody production

Record excerpt, results attached:
{"columns": ["Molecule", "Value"],
 "data": [
  ["CCCCCCCCCCCCCCCCCC(=O)N[C@@H](CC(C)C)C(=O)NCCCCCCCC [SZ196]", "tended to increase"],
  ["CCCCCCCCCCCCNC(=O)[C@H](CCCNC(=N)N)N(CCCCCCC)CCCCCCC [SZ207, dihydrochloride]", "tended to increase"],
  ["CCCCCCCCCCCCCCCCCC(=O)NCC(C)(C)C(=O)NCCCCCCCCCCCC [SZ204]", "tended to increase"],
  ["CCCCCCCCCCCCCCCCNC(=O)N[C@H](CCCNC(=N)N)C(=O)NCCCCCCCCCCCC.Cl [SZ193]", "significant enhancement"],
  ["CCCCCCCCCCCCCCCCCC(=O)N[C@H](CCCNC(=N)N)C(=O)NCCCCCCCCCCCC.Cl [SZ191]", "significant enhancement"]
]}

## Input Could you share which anti-OVA-specific IgG2a subclass antibody production value was measured for CCCCCCCCCCCCCCCCOC(=O)N[C@@H](CCCNC(=N)N)C(=O)NCCCCCCCC.Cl [SZ215] ?
## Output significant enhancement

## Input Could you share which anti-OVA-specific IgG2a subclass antibody production value was measured for CCCCCCCCCCCCCCCCNC(=O)N[C@@H](CC(C)C)C(=O)NCCCCCCCC [SZ201] ?
## Output tended to increase

## Input Could you share which anti-OVA-specific IgG2a subclass antibody production value was measured for CCCCCCCCCCCCCCCCCC(=O)N[C@@H](CCCCNC(=N)N)C(=O)NCCCCCCCCCCCC.Cl [SZ205] ?
## Output significant enhancement

## Input Could you share which anti-OVA-specific IgG2a subclass antibody production value was measured for CCCCCCCCCCCCCCCCCC(=O)N[C@@H](CC(C)C)C(=O)NCCCCCCCCCCCC [SZ195] ?
## Output tended to increase

## Input Could you share which anti-OVA-specific IgG2a subclass antibody production value was measured for CCCCCCCCCCCCCCCCCCCCCC(=O)N[C@@H](CC(C)C)C(=O)NCCCCCCCCCCCC [SZ197] ?
## Output tended to increase

## Input Could you share which anti-OVA-specific IgG2a subclass antibody production value was measured for CCCCCCCCCCCCCCCCCCCCCC(=O)NCCc1ccncc1.Cl [SZ209] ?
## Output tended to increase

## Input Could you share which anti-OVA-specific IgG2a subclass antibody production value was measured for CCCCCCCCCCCCCCCCNC(=O)N[C@@H](CCCCN)C(=O)NCCCCCCCCCCCC.Cl [SZ214] ?
## Output significant enhancement

====

- Test system: anti-OVA-specific IgG2a subclass antibody
- Test summary: Adjuvant activity test: anti-OVA-specific IgG2a subclass antibody in serum of OVA-immunized mice (ELISA)
- Type: in vivo, BALB/c mice
- Applied conditions: after secondary immunization, serum 2 weeks later; OVA 5 μg + compound 0.256 μmol in 5% αCD-added saline (Addavax mixed with saline at 1:1), dorsal-subcutaneous; compared to OVA single administration group
Counter-ions that a name gives are not always drawn.
Quantity name: anti-OVA-specific IgG2a subclass antibody production

Record excerpt, results attached:
{"columns": ["Compound", "Target system", "Value"],
 "data": [
  ["CCCCCCCCCCCCNC(=O)[C@H](CCCNC(=N)N)N(CCCCCCC)CCCCCCC [SZ207, dihydrochloride]", "anti-OVA-specific IgG2a subclass antibody", "significant enhancement"],
  ["CCCCCCCCCCCCCCCCCCCCCC(=O)N[C@@H](CC(C)C)C(=O)NCCCCCCCCCCCC [SZ197]", "anti-OVA-specific IgG2a subclass antibody", "tended to increase"],
  ["CCCCCCCCCCCCNC(=O)N[C@@H](CCCNC(=N)N)C(=O)NCCCCCCCCCCCC.Cl [SZ212]", "anti-OVA-specific IgG2a subclass antibody", "significant enhancement"],
  ["CCCCCCCCCCCCCCCCCC(=O)N[C@@H](CC(C)C)C(=O)NCCCCCCCCCCCC [SZ195]", "anti-OVA-specific IgG2a subclass antibody", "tended to increase"]
]}

## Input Could you share which anti-OVA-specific IgG2a subclass antibody production value was measured for CCCCCCCCCCCCNC(=O)[C@H](CCCNC(=N)N)NC(=O)OCCCCCCCCCCCC.Cl [SZ187] ?
## Output significant enhancement

====

- Tested on: anti-OVA-specific IgG2a subclass antibody
- Test summary: Adjuvant activity test: anti-OVA-specific IgG2a subclass antibody in serum of OVA-immunized mice (ELISA)
- Format: in vivo, BALB/c mice
- Applied conditions: after primary immunization, serum 2 weeks later; OVA 5 μg + compound 0.256 μmol in 5% αCD-added saline (Addavax mixed with saline at 1:1), dorsal-subcutaneous; compared to OVA single administration group
Quantity name: anti-OVA-specific IgG2a subclass antibody production

{"columns": ["Molecular string", "Value"],
 "data": [
  ["CCCCCCCCCCCCCCCCNC(=O)N[C@@H](CCCCN)C(=O)NCCCCCCCC.Cl", "significant enhancement"],
  ["CCCCCCCCCCCCCCCCCCNC(=O)N[C@@H](CCCNC(=N)N)C(=O)NCCCCCCCCCCCC.Cl", "significant enhancement"],
  ["CCCCCCCCCCCCCCCCCCCC(=O)N[C@@H](CCCNC(=N)N)C(=O)NCCCCCCCC.Cl", "significant enhancement"]
]}

====

- System: anti-OVA-specific IgG2a subclass antibody
- Test summary: Adjuvant activity test: anti-OVA-specific IgG2a subclass antibody in serum of OVA-immunized mice (ELISA)
- Assay type: in vivo, BALB/c mice
- Applied conditions: after secondary immunization, serum 2 weeks later; OVA 5 μg + compound 0.256 μmol in 5% αCD-added saline (Addavax mixed with saline at 1:1), dorsal-subcutaneous; compared to OVA single administration group
Quantity name: anti-OVA-specific IgG2a subclass antibody production

{"columns": ["Molecular string", "Value"],
 "data": [
  ["CCCCCCCCCCCCCCCCCCCC(=O)N[C@@H](CCCNC(=N)N)C(=O)NCCCCCCCCCCCC.Cl", "significant enhancement"],
  ["CCCCCCCCCCCCCCCCCCNC(=O)N[C@@H](CCCNC(=N)N)C(=O)NCCCCCCCCCCCC.Cl", "significant enhancement"],
  ["CCCCCCCCCCCCCCCC(=O)N[C@@H](CCCNC(=N)N)C(=O)NCCCCCCCCCCCC.Cl", "significantly increased"],
  ["CCCCCCCCCCCCCCCCCCCCCC(=O)N[C@@H](CCCCNC(=N)N)C(=O)NCCCCCC.Cl", "tended to increase"],
  ["CCCCCCCCCCCCCCCCCC(=O)N[C@@H](CCCNC(=N)N)C(=O)NCCCCCCCCCCCC.Cl", "significantly increased"]
]}

## Input Could you share which anti-OVA-specific IgG2a subclass antibody production value was measured for CCCCCCCCCCCCCCCCNC(=O)N[C@@H](CCCNC(=N)N)C(=O)NCCCCCCCC.Cl ?
## Output significant enhancement

## Input Could you share which anti-OVA-specific IgG2a subclass antibody production value was measured for CCCCCCCCCCCCCCCCCCCCCC(=O)N[C@@H](CCCN)C(=O)NCCCCCCCCCCCC.Cl ?
## Output tended to increase

## Input Could you share which anti-OVA-specific IgG2a subclass antibody production value was measured for CCCCCCCCCCCCCCCCCCCCCC(=O)NCCc1ccncc1.Cl ?
## Output tended to increase

## Input Could you share which anti-OVA-specific IgG2a subclass antibody production value was measured for CCCCCCCCCCCCCCCCCC(=O)N[C@H](CCCNC(=N)N)C(=O)NCCCCCCCCCCCC.Cl ?
## Output significant enhancement

## Input Could you share which anti-OVA-specific IgG2a subclass antibody production value was measured for CCCCCCCCCCCCCCCCNC(=O)N[C@@H](CC(C)C)C(=O)NCCCCCCCC ?
## Output tended to increase

====

- Test system: anti-OVA-specific IgG2a subclass antibody
- Test summary: Adjuvant activity test: anti-OVA-specific IgG2a subclass antibody in serum of OVA-immunized mice (ELISA)
- Type: in vivo, BALB/c mice
- Applied conditions: after secondary immunization, serum 2 weeks later; OVA 5 μg + compound 0.256 μmol in 5% αCD-added saline (Addavax mixed with saline at 1:1), dorsal-subcutaneous; compared to OVA single administration group
Quantity name: anti-OVA-specific IgG2a subclass antibody production

Record excerpt, results attached:
{"columns": ["Molecule", "Target system", "Value"],
 "data": [
  ["CCCCCCCCCCCCCCCCNC(=O)N[C@@H](CCCCN)C(=O)NCCCCCCCCCCCC.Cl [SZ214]", "anti-OVA-specific IgG2a subclass antibody", "significant enhancement"],
  ["CCCCCCCCCCCCCCCCCCCCCC(=O)N[C@@H](CCCCNC(=N)N)C(=O)NCCCCCCCCCCCC.Cl [SZ166]", "anti-OVA-specific IgG2a subclass antibody", "tended to increase"],
  ["CCCCCCCCCCCCCCCCCC(=O)N[C@@H](CC(C)C)C(=O)NCCCCCCCC [SZ196]", "anti-OVA-specific IgG2a subclass antibody", "tended to increase"],
  ["CCCCCCCCCCCCCCCCCCCCCC(=O)N[C@@H](CCCCNC(C)=O)C(=O)NCCCCCCCCCCCC [SZ167]", "anti-OVA-specific IgG2a subclass antibody", "tended to increase"],
  ["CCCCCCCCCCCCCCCCCC(=O)N[C@@H](CCCCNC(=N)N)C(=O)NCCCCCCCCCCCC.Cl [SZ205]", "anti-OVA-specific IgG2a subclass antibody", "significant enhancement"]
]}

// switching to the query molecule
## Input Could you share which anti-OVA-specific IgG2a subclass antibody production value was measured for CCCCCCCCCCCCCCCCOC(=O)N[C@@H](CCCCN)C(=O)NCCCCCCCCCCCC.Cl [SZ189] ?
## Output significant enhancement
